System: KMOE-2
Experiment: cells
Assay type: functional, cell-based
Details: Homo sapiens
Description: SANGER: Inhibition of human KMOE-2 cell growth in a cell viability assay.
measured_metric: IC50

The following molecules have reported results that may help.
molecule=C[C@]1(c2nc3c(C(N)=O)cccc3[nH]2)CCCN1 recorded_value="> 5000 nM"
molecule="CC(O)(CS(=O)(=O)c1ccc(F)cc1)C(=O)Nc1ccc(C#N)c(C(F)(F)F)c1 (configuration not stated) [BICALUTAMIDE]" recorded_value="> 1020 nM"
molecule=CC(C)=CC[C@@H](O)C1=CC(=O)c2c(O)ccc(O)c2C1=O recorded_value="1240 nM"
molecule=Fc1cc(-c2cc[nH]/c(=N/c3ccc(-n4cnc(N5CCOCC5)n4)cc3)n2)cc(N2CCOCC2)c1 recorded_value="1070 nM"

Go through the list and state IC50 for each entry.
1. COc1cc(Nc2c(C#N)cnc3cc(OCCCN4CCN(C)CC4)c(OC)cc23)c(Cl)cc1Cl
2. Cc1nc(Nc2ncc(C(=O)Nc3c(C)cccc3Cl)s2)cc(N2CCN(CCO)CC2)n1

Data returned:
["> 2000 nM", "> 1280 nM"]

Data request: Param readout= IC50; system= KMOE-2; entry= `C/C(O)=C(\C#N)C(=O)Nc1cc(Br)ccc1Br` ; returns value.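 Further: growth inhibition of human KMOE-2 cells, read out with a cell viability assay.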
Data returned: > 16000 nM

----------
Test system: SK-PN-DW;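 further: growth inhibition measured with a viability assay on these cells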
Assay: cells
Assay type: functional, cell-based
Conditions: Homo sapiens
Description: SANGER: Inhibition of human SK-PN-DW cell growth in a cell viability assay.
pIC50: −log10 of the molar value.
measured_metric: pIC50

The following compounds have reported results that may help.
compound="CC(O)(CS(=O)(=O)c1ccc(F)cc1)C(=O)Nc1ccc(C#N)c(C(F)(F)F)c1 (stereo not drawn) [BICALUTAMIDE]" measured_metric=pIC50 recorded_value="< 5.99"
compound=Cc1[nH]c(/C=C2\C(=O)Nc3ccc(S(=O)(=O)Cc4c(Cl)cccc4Cl)cc32)c(C)c1C(=O)N1CCC[C@@H]1CN1CCCC1 measured_metric=pIC50 recorded_value="< 5.70"

Data request: Value lookup for pIC50; key = `C/C=C(/C)C(=O)O[C@H]1C(C)=C2[C@H]([C@@H]1OC(=O)CCCCCCC)[C@@](C)(OC(C)=O)C[C@H](OC(=O)CCC)[C@@]1(O)[C@H]2OC(=O)[C@@]1(C)O`
Data returned: > 8.70

----------
For each record, write down the corresponding IC50.
System: NCI-H1838;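 further: growth inhibition of NCI-H1838 cells, determined with a cell viability readout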
Experiment: cells
Format: functional, cell-based
Conditions: Homo sapiens
Description: SANGER: Inhibition of human NCI-H1838 cell growth in a cell viability assay.

The following molecules have reported results that may help.
molecule=O=c1cc(N2CCOCC2)oc2c(-c3cccc4c3sc3ccccc34)cccc12 recorded_value="> 2000 nM"
molecule="CC(O)(CS(=O)(=O)c1ccc(F)cc1)C(=O)Nc1ccc(C#N)c(C(F)(F)F)c1 (stereo unspecified) [BICALUTAMIDE]" recorded_value="> 1020 nM"

Go through the list and state IC50 for each entry.
1. Fc1cc(-c2cc[nH]/c(=N/c3ccc(-n4cnc(N5CCOCC5)n4)cc3)n2)cc(N2CCOCC2)c1
2. Cn1cc(/C=C2\C(=O)Nc3cccnc32)c2ccccc21
3. C[C@]1(c2nc3c(C(N)=O)cccc3[nH]2)CCCN1 [VELIPARIB]
4. C/C=C(/C)C(=O)O[C@H]1C(C)=C2[C@H]([C@@H]1OC(=O)CCCCCCC)[C@@](C)(OC(C)=O)C[C@H](OC(=O)CCC)[C@@]1(O)[C@H]2OC(=O)[C@@]1(C)O [THAPSIGARGIN]

Data returned:
1: > 5120 nM; 2: > 2000 nM; 3: > 5000 nM; 4: > 512 nM

----------
Tested on: NCI-H2081
Experiment: cells
Format: functional, cell-based
Details: Homo sapiens
Description: SANGER: Inhibition of human NCI-H2081 cell growth in a cell viability assay.
measured_metric: IC50

compound=Cc1[nH]c(/C=C2\C(=O)Nc3ccc(S(=O)(=O)Cc4c(Cl)cccc4Cl)cc32)c(C)c1C(=O)N1CCC[C@@H]1CN1CCCC1 recorded_value="> 2000 nM"
compound=N#C/C(=C1/Nc2ccccc2S1)c1ccnc(NCCc2cccnc2)n1 recorded_value="> 8000 nM"
compound="CC(O)(CS(=O)(=O)c1ccc(F)cc1)C(=O)Nc1ccc(C#N)c(C(F)(F)F)c1 (centres undefined) [BICALUTAMIDE]" recorded_value="> 1020 nM"

Could you now consider this next compound?
Data request: Value lookup for IC50; key = `CC(C)=CC[C@@H](O)C1=CC(=O)c2c(O)ccc(O)c2C1=O`
Data returned: 1520 nM

----------
For each record, write down the corresponding IC50.
System: TE-9
Experiment: cells
Format: functional, cell-based
Conditions: Homo sapiens
Description: SANGER: Inhibition of human TE-9 cell growth in a cell viability assay.

The following compounds have reported results that may help.
compound="CCn1c(-c2nonc2N)nc2cnc(Oc3cccc(NC(=O)c4ccc(OCCN5CCOCC5)cc4)c3)cc21 [GSK-269962A]" recorded_value="> 2.5 µM"
compound=Cc1ccc(NC(=O)c2cccc(C(C)(C)C#N)c2)cc1Nc1ccc2ncn(C)c(=O)c2c1 recorded_value="> 4 µM"
compound=C/C(O)=C(\C#N)C(=O)Nc1cc(Br)ccc1Br recorded_value="> 16 µM"
compound=C/C=C(/C)C(=O)O[C@H]1C(C)=C2[C@H]([C@@H]1OC(=O)CCCCCCC)[C@@](C)(OC(C)=O)C[C@H](OC(=O)CCC)[C@@]1(O)[C@H]2OC(=O)[C@@]1(C)O recorded_value="0.0133 µM"
compound=CCNc1cc(N[C@H]2CC[C@@H](O)CC2)nc(Nc2ccc3c(ccn3Cc3ccccc3)c2)n1 recorded_value="> 5.12 µM"

Go through the list and state IC50 for each entry.
1. COc1cc(C)c(Sc2cnc(NC(=O)c3ccc(CNC(C)C(C)(C)C)cc3)s2)cc1C(=O)N1CCN(C(C)=O)CC1 (stereo not drawn)
2. CO[C@@]12[C@H](COC(N)=O)C3=C(C(=O)C(C)=C(N)C3=O)N1C[C@@H]1N[C@@H]12
3. CC[C@]1(O)C[C@@H]2CN(CCc3c([nH]c4ccccc34)[C@@](C(=O)OC)(c3cc4c(cc3OC)N(C)[C@H]3[C@@](O)(C(=O)OC)[C@H](OC(C)=O)[C@]5(CC)C=CCN6CC[C@]43[C@@H]65)C2)C1

Data returned:
1. > 10.2 µM
2. 0.5 µM
3. 0.00427 µM

----------
System: UACC-812
Test: cells
Type: functional, cell-based
Conditions: Homo sapiens
Description: SANGER: Inhibition of human UACC-812 cell growth in a cell viability assay.
measured_metric: IC50

The following molecules have reported results that may help.
molecule=Cc1[nH]c(/C=C2\C(=O)Nc3ccc(S(=O)(=O)Cc4c(Cl)cccc4Cl)cc32)c(C)c1C(=O)N1CCC[C@@H]1CN1CCCC1 measured_metric=IC50 recorded_value="> 2 µM"
molecule=Cc1ccc(NC(=O)c2cccc(C(C)(C)C#N)c2)cc1Nc1ccc2ncn(C)c(=O)c2c1 measured_metric=IC50 recorded_value="> 4 µM"
molecule=CO[C@@]12[C@H](COC(N)=O)C3=C(C(=O)C(C)=C(N)C3=O)N1C[C@@H]1N[C@@H]12 measured_metric=IC50 recorded_value="> 16 µM"

Data request: Value lookup for IC50; key = CC(O)(CS(=O)(=O)c1ccc(F)cc1)C(=O)Nc1ccc(C#N)c(C(F)(F)F)c1 (centres undefined) [BICALUTAMIDE]
Data returned: > 1.02 µM

----------
System: SK-OV-3
Test: cells
Format: functional, cell-based
Settings: Homo sapiens
Description: SANGER: Inhibition of human SK-OV-3 cell growth in a cell viability assay.
measured_metric: IC50

molecular_string=CC(=O)c1c(C)c2cnc(Nc3ccc(N4CCNCC4)cn3)nc2n(C2CCCC2)c1=O measured_metric=IC50 recorded_value="> 4 µM"
molecular_string=Fc1cc(-c2cc[nH]/c(=N/c3ccc(-n4cnc(N5CCOCC5)n4)cc3)n2)cc(N2CCOCC2)c1 measured_metric=IC50 recorded_value="2.07 µM"
molecular_string=N#C/C(=C1/Nc2ccccc2S1)c1ccnc(NCCc2cccnc2)n1 measured_metric=IC50 recorded_value="> 8 µM"
molecular_string=CC[C@]1(O)C[C@@H]2CN(CCc3c([nH]c4ccccc34)[C@@](C(=O)OC)(c3cc4c(cc3OC)N(C)[C@H]3[C@@](O)(C(=O)OC)[C@H](OC(C)=O)[C@]5(CC)C=CCN6CC[C@]43[C@@H]65)C2)C1 measured_metric=IC50 recorded_value="> 0.1 µM"
molecular_string=CCCS(=O)(=O)Nc1ccc(F)c(C(=O)c2c[nH]c3ncc(Cl)cc23)c1F measured_metric=IC50 recorded_value="> 10 µM"
molecular_string=C/C=C(/C)C(=O)O[C@H]1C(C)=C2[C@H]([C@@H]1OC(=O)CCCCCCC)[C@@](C)(OC(C)=O)C[C@H](OC(=O)CCC)[C@@]1(O)[C@H]2OC(=O)[C@@]1(C)O measured_metric=IC50 recorded_value="0.00264 µM"
molecular_string=NC(=O)c1ncn([C@@H]2O[C@H](COP(=O)(O)O)[C@@H](O)[C@H]2O)c1N measured_metric=IC50 recorded_value="> 2000 µM"

Could you now consider this next molecule?
Data request: Value lookup for IC50; key = `CC(C)=CC[C@@H](O)C1=CC(=O)c2c(O)ccc(O)c2C1=O`
Data returned: 1.56 µM
